Reference for the values: patent US5202315A

# Tested on: Serratia marcescens ATCC 27117
# Measurement Description: Antibacterial activity, MIC
# Type: cell-based
# Condition Parameters: ATCC27117, ATCC 27117, agar two-fold dilution, 37° C., 20 hours, read-out: MIC
Attribute Measured: MIC

{"Compound": "CCC[n+]1c(N)cc(N)nc1SCC1=C(C(=O)[O-])N2C(=O)C(NC(=O)/C(=N\\OC(C)C(=O)O)c3csc(N)n3)C2SC1 (stereo not drawn)", "Test System": "Serratia marcescens ATCC 27117", "MIC": "0.13 mg/L"}

QUERY: Look up MIC: CC[n+]1c(N)cc(N)nc1SCC1=C(C(=O)[O-])N2C(=O)C(NC(=O)/C(=N\OC(C)(C)C(=O)O)c3nsc(N)n3)C2SC1 (stereo not drawn)
RESULT: 0.25 mg/L

QUERY: // returns reported MIC for input CC[n+]1c(N)cc(N)nc1SCC1=C(C(=O)[O-])N2C(=O)C(NC(=O)/C(=N\OC)c3nsc(N)n3)C2SC1 (stereo not drawn)
RESULT: 0.25 mg/L

---

# Measurement Description: In-vivo absorbency (plasma concentrations & pharmacokinetic parameters)
# Set-up: species or system SD rat (male)
# Condition Parameters: rat, in vivo, iv, 20 mg/kg
Attribute Measured: concentration at 1 h

QUERY: Recorded concentration at 1 h of CC(C)(O/N=C(\C(=O)N[C@@H]1C(=O)N2C(C(=O)[O-])=C(C[n+]3ccccc3)CS[C@H]12)c1csc(N)n1)C(=O)O [Ceftazidime, reference compound] , please.
RESULT: 4.7 µg/mL

---

# Measurement Description: In-vivo absorbency (plasma concentrations & pharmacokinetic parameters)
# Parameters: species or system SD rat (male)
# Condition Parameters: plasma; 150 min; SD male rat, iv 20 mg/kg; read-out: Plasma Conc.
Attribute Measured: concentration at 2.5 h (ng/mL)
Note: unit ng/mL is implicit; provide only the numeric part.

QUERY: Given Cc1c(N)nc(SCC2=C(C(=O)[O-])N3C(=O)C(NC(=O)/C(=N\OC(C)(C)C(=O)O)c4csc(N)n4)C3SC2)[n+](C)c1N (stereo not shown) , state its recorded concentration at 2.5 h.
RESULT: 1300

---

# Measurement Description: In-vivo absorbency (plasma concentrations & pharmacokinetic parameters)
# Design: species or system SD rat (male)
# Condition Parameters: plasma; 40 min; SD male rat, iv 20 mg/kg; read-out: Plasma Conc.
Attribute Measured: concentration at 40 min (ng/mL)
Write the value in ng/mL as a bare number.

QUERY: Entry CC[n+]1c(N)cc(N)nc1SCC1=C(C(=O)[O-])N2C(=O)C(NC(=O)/C(=N\OCC(=O)O)c3csc(N)n3)C2SC1 (centres unmarked) has what concentration at 40 min?
RESULT: 15000

QUERY: Given the compound CCc1c(N)nc(SCC2=C(C(=O)[O-])N3C(=O)C(NC(=O)/C(=N\OC(C)(C)C(=O)O)c4csc(N)n4)C3SC2)[n+](C)c1N (centres unmarked) , what is its reported concentration at 40 min?
RESULT: 14000

QUERY: Can you look up the measured concentration at 40 min of CCC[n+]1c(N)cc(N)nc1SCC1=C(C(=O)[O-])N2C(=O)C(NC(=O)/C(=N\OC(C)C(=O)O)c3csc(N)n3)C2SC1 (centres unmarked) for me?
RESULT: 16000

QUERY: Param item = Cc1c(N)nc(SCC2=C(C(=O)[O-])N3C(=O)C(NC(=O)/C(=N\OC(C)(C)C(=O)O)c4csc(N)n4)C3SC2)[n+](C)c1N (centres unmarked) ; retrieve measured concentration at 40 min.
RESULT: 17000

QUERY: Can you look up the measured concentration at 40 min of C[n+]1c(N)cc(N)nc1SCC1=C(C(=O)[O-])N2C(=O)C(NC(=O)/C(=N\OCC(=O)O)c3csc(N)n3)C2SC1 (centres unmarked) for me?
RESULT: 15000
